# TARGET_OF_ASSAY: UniProt:Q14416
# ASSAY_METHOD_TEXT: Displacement of [3H]JNJ-46281222 from human metabotropic glutamate receptor 2 expressed in CHOK1 cell membranes assessed as association rate constant measured every 30 sec for 120 mins by scintillation proximity assay
# Sequence (Q14416 19-872 limits assumed): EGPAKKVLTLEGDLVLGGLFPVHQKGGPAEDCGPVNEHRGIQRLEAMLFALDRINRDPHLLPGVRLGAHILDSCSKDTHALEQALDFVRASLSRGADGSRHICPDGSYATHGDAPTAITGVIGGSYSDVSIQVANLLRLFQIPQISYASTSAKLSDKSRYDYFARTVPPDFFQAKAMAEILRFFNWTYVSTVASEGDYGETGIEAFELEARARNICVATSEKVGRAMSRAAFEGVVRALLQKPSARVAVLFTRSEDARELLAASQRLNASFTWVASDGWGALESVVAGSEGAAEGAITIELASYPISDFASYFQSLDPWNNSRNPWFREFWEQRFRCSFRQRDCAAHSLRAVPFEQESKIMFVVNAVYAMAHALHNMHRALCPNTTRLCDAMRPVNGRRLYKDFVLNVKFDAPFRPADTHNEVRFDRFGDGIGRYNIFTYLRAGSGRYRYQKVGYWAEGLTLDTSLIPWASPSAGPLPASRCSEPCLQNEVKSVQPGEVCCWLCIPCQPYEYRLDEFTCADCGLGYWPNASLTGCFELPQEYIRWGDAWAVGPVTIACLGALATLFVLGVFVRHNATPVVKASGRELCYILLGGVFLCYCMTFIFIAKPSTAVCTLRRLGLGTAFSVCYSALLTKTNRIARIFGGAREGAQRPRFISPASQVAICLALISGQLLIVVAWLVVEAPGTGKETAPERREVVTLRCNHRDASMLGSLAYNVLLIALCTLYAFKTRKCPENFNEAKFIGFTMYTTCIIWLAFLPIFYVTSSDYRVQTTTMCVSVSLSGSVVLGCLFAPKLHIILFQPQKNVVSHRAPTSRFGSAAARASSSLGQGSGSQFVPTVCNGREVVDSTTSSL
Listed below: K values for each entry.
Please give a number only; it is taken to be in ×10⁷ /M/min.

The following molecules have reported results that may help.
| CHEM_SMILES | K [×10⁷ /M/min] |
| --- | --- |
| CCOCc1nnc2c(C(F)(F)F)c(-c3ccc(Oc4ccc(C)nc4C)c(F)c3)ccn12 | 3.6 |
| O[C@H]1CC[C@H](Oc2ccc(-c3ccn4c(CC5CC5)nnc4c3C(F)(F)F)cc2Cl)CC1 | 1.2 |
| O[C@]1(C2CC2)CC[C@H](Nc2ccc(-c3ccn4c(CC5CC5)nnc4c3C(F)(F)F)cc2Cl)CC1 | 1.4 |
| FC(F)(F)c1c(-c2ccc(NC3CCOCC3)c(Cl)c2)ccn2c(CC3CC3)nnc12 | 1.8 |
| COc1ccc(CNc2ccc(-c3ccn4c(CC5CC5)nnc4c3C(F)(F)F)cc2F)cn1 | 1.5 |

Q: Could you share which K value was measured for "Fc1cc(-c2ccn3c(CC4CC4)nnc3c2C(F)(F)F)ccc1NC1CC1" ?
Result: 7.7

Q: Consider the molecule shown here: "O[C@H]1CC[C@H](Nc2ccc(-c3ccn4c(CC5CC5)nnc4c3C(F)(F)F)cc2Cl)CC1" What is its recorded K?
Result: 1.1

Q: So what's the measured K for this one? "Clc1cc(-c2ccn3c(CC4CC4)nnc3c2Cl)ccc1NC1CC1"
Result: 1.4

Q: Which K value belongs to "Cc1ccc(Oc2ccc(-c3ccn4c(CC5CC5)nnc4c3Cl)cc2Cl)c(C)n1" ?
Result: 6.2

* * *

# TARGET_OF_ASSAY: Metabotropic glutamate receptor 2 (Homo sapiens)
# ASSAY_METHOD_TEXT: Displacement of [3H]JNJ-46281222 from human metabotropic glutamate receptor 2 expressed in CHOK1 cell membranes assessed as residence time measured every 30 sec for 120 mins by scintillation proximity assay
ASSAY_READOUT: TIME (h)
Numbers only here, please. The scale is h.

Past entries and their recorded results:
| MOLECULE | ASSAY_READOUT | ENDPOINT_RESULT |
| --- | --- | --- |
| Cc1cc(Oc2ccc(-c3ccn4c(CC5CC5)nnc4c3Cl)cc2F)ccn1 | TIME | 0.173 |
| FC(F)(F)c1c(-c2ccc(CNC3CCOCC3)c(Cl)c2)ccn2c(CC3CC3)nnc12 | TIME | 0.183 |

Q: Sample "CCOCc1nnc2c(Cl)c(-c3ccc(Oc4ccc(C)nc4C)c(F)c3)ccn12" — what was its TIME?
Result: 0.22

Q: May I ask what TIME has been recorded for "Fc1cc(-c2ccn3c(CC4CC4)nnc3c2C(F)(F)F)ccc1Oc1ccnc(C2CC2)c1" ?
Result: 0.0883

* * *

Overview of recorded pKi for various molecules
# TARGET_OF_ASSAY: UniProt:Q14416
# ASSAY_METHOD_TEXT: Displacement of [3H]-JNJ46281222 from human metabotropic glutamate receptor 2 expressed in CHOK1 cell membranes after 60 mins by microbeta counting analysis
# Sequence (Q14416 whole entry): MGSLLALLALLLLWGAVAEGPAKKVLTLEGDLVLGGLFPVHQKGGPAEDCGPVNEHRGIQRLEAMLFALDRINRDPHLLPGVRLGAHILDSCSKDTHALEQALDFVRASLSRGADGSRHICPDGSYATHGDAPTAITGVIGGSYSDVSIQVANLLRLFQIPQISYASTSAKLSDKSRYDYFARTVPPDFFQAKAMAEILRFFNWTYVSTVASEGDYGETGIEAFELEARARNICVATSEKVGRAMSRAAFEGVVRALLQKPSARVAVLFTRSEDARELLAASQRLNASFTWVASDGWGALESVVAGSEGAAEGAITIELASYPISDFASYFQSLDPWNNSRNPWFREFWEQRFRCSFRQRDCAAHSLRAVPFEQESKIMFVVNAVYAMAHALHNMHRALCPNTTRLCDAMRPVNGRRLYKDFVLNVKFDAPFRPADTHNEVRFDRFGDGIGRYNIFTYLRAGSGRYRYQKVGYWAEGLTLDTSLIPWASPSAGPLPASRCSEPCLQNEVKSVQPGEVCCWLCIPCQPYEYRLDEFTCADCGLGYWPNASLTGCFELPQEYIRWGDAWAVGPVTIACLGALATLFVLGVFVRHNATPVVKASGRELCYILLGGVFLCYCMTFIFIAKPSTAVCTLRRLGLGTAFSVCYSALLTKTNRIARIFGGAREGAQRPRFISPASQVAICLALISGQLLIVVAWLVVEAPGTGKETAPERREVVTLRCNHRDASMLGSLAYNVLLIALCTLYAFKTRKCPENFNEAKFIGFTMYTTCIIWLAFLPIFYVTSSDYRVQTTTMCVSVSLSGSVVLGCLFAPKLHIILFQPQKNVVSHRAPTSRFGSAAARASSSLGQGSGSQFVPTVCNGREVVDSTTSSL
Lab note — pKi values are minus log10 of concentrations in M.

| CHEM_SMILES | pKi |
| --- | --- |
| O[C@H]1CC[C@@H](Oc2ccc(-c3ccn4c(CC(F)(F)F)nnc4c3Cl)cc2Cl)CC1 | 7.49 |
| FC(F)(F)c1c(-c2ccc(OC3CCOCC3)c(Cl)c2)ccn2c(CC3CC3)nnc12 | 8.28 |
| Fc1cc(-c2ccn3c(CC4CC4)nnc3c2Cl)ccc1NC1CC1 | 7.99 |
| Cc1cc(Oc2ccc(-c3ccn4c(CC5CC5)nnc4c3C(F)(F)F)cc2F)cc(C)n1 | 8.00 |
| CC(C)Nc1ccc(-c2ccn3c(CC4CC4)nnc3c2C(F)(F)F)cc1Cl | 8.41 |

Turning now to a further molecule:
Q: What value of pKi has been reported for the following molecule? "CCOCc1nnc2c(C(F)(F)F)c(-c3ccc(Oc4ccc(C)nc4C)c(F)c3)ccn12"
Result: 7.93

* * *

# TARGET_OF_ASSAY: Metabotropic glutamate receptor 2 (Homo sapiens)
# ASSAY_METHOD_TEXT: Displacement of [3H]JNJ-46281222 from human metabotropic glutamate receptor 2 expressed in CHOK1 cell membranes assessed as association rate constant measured every 30 sec for 120 mins by scintillation proximity assay
Quick reference: K of the listed items.
Use ×10⁶ /M/min as the unit, but write only the number.

| CHEM_SMILES | K / ×10⁶ /M/min |
| --- | --- |
| Cc1cc(Oc2ccc(-c3ccn4c(CC5CC5)nnc4c3Cl)cc2F)ccn1 | 2.6 |
| N#Cc1c(N2CCC(c3ccccc3)CC2)ccn(CC2CC2)c1=O | 1.7 |
| Cc1ccc(Oc2ccc(-c3ccn4c(CC5CC5)nnc4c3Cl)cc2F)c(C)n1 | 6.3 |

Turning now to a further compound:
Q: GET /values?readout=K&item= "Cc1cc(Oc2ccc(-c3ccn4c(CC5CC5)nnc4c3C(F)(F)F)cc2F)ccn1"
Result: 9.8

* * *

# TARGET_OF_ASSAY: Metabotropic glutamate receptor 2 (Homo sapiens, UniProt Q14416)
# ASSAY_METHOD_TEXT: Displacement of [3H]JNJ-46281222 from human metabotropic glutamate receptor 2 expressed in CHOK1 cell membranes assessed as dissociation rate constant measured every 30 sec for 120 mins by scintillation proximity assay
ASSAY_READOUT: K (min⁻¹)
The response must be a number in min⁻¹ with no trailing unit.

Examples with answers:
| CHEM_SMILES | K (min⁻¹) |
| --- | --- |
| Fc1cc(-c2ccn3c(CC4CC4)nnc3c2C(F)(F)F)ccc1Oc1ccnc(C2CC2)c1 | 0.189 |
| O[C@H]1CC[C@@H](Nc2ccc(-c3ccn4c(CC5CC5)nnc4c3C(F)(F)F)cc2Cl)CC1 | 0.058 |
| COc1ccc(COc2ccc(-c3ccn4c(CC5CC5)nnc4c3C(F)(F)F)cc2)cn1 | 0.125 |

Q: Param item = "Clc1cc(-c2ccn3c(CC4CC4)nnc3c2Cl)ccc1NC1CCOCC1" ; retrieve measured K.
Result: 0.136

Q: Request the reported K associated with "CCc1cc(Oc2ccc(-c3ccn4c(CC5CC5)nnc4c3Cl)cc2F)ccn1"
Result: 0.069

Q: What value of measured K is listed for "CC(C)Nc1ccc(-c2ccn3c(CC4CC4)nnc3c2C(F)(F)F)cc1Cl" ?
Result: 0.121

* * *

# TARGET_OF_ASSAY: Metabotropic glutamate receptor 2 (Homo sapiens)
# ASSAY_METHOD_TEXT: Displacement of [3H]JNJ-46281222 from human metabotropic glutamate receptor 2 expressed in CHOK1 cell membranes assessed as dissociation rate constant measured every 30 sec for 120 mins by scintillation proximity assay
Hi! Just check whether K is below 0.08 min⁻¹. Below gives class 1, equal or above gives class 0.

Some entries whose results are on file:
| COMPOUND | CATEGORY_LABEL |
| --- | --- |
| Cc1cc(Oc2ccc(-c3ccn4c(CC5CC5)nnc4c3C(F)(F)F)cc2F)ccn1 | class 0 |
| Cc1cc(Oc2ccc(-c3ccn4c(CC5CC5)nnc4c3Cl)cc2F)ccn1 | class 0 |
| COc1ccc(COc2ccc(-c3ccn4c(CC5CC5)nnc4c3C(F)(F)F)cc2F)cn1 | class 0 |
| CC(C)Nc1ccc(-c2ccn3c(CC4CC4)nnc3c2Cl)cc1F | class 0 |
| FC(F)(F)c1c(-c2ccc(NC3CC3)c(Cl)c2)ccn2c(CC3CC3)nnc12 | class 0 |
| CC(C)C(=O)c1ccc(OCc2ccc(CNC(=O)c3cn(C)cn3)cc2)c(C(F)(F)F)c1O | class 0 |
| O[C@H]1CC[C@H](Nc2ccc(-c3ccn4c(CC(F)(F)F)nnc4c3Cl)cc2Cl)CC1 | class 1 |
| CCOCc1nnc2c(C(F)(F)F)c(-c3ccc(Oc4ccc(C)nc4C)c(F)c3)ccn12 | class 1 |

Q: K strictly < 0.08 min⁻¹ for this compound? "Fc1cc(-c2ccn3c(CC4CC4)nnc3c2Cl)ccc1Oc1ccnc(C2CC2)c1"
Result: class 1

Q: Please let me know if "O[C@H]1CC[C@H](Nc2ccc(-c3ccn4c(CC5CC5)nnc4c3C(F)(F)F)cc2Cl)CC1" shows K below 0.08 min⁻¹.
Result: class 1

Q: Hello, is K of the following compound strictly smaller than 0.08 min⁻¹? "FC(F)(F)c1c(-c2ccc(OC3CCOCC3)c(Cl)c2)ccn2c(CC3CC3)nnc12"
Result: class 0

Q: Record "Cc1ccc(Oc2ccc(-c3ccn4c(CC5CC5)nnc4c3C(F)(F)F)cc2F)c(C)n1" : is its K strictly below 0.08 min⁻¹?
Result: class 1

Q: Is 0.08 min⁻¹ strictly greater than the compound's reported K? compound: "Cc1ccc(Oc2ccc(-c3ccn4c(CC5CC5)nnc4c3C(F)(F)F)cc2Cl)c(C)n1"
Result: class 1

Q: Criterion: K strictly below 0.08 min⁻¹. Is it met by Cc1c(OCc2cccc(-c3ccc(C(=O)O)cc3)c2)cc2c(c1C)C(=O)C(C1CCCC1)C2 (centres undefined) ?
Result: class 0

Q: Take the compound "N#Cc1c(N2CCC(c3ccccc3)CC2)ccn(CC2CC2)c1=O" and say whether its K is less than 0.08 min⁻¹.
Result: class 0

Q: Determine whether this compound shows K lower than 0.08 min⁻¹ (ties excluded): "Cc1ccc(Oc2ccc(-c3ccn4c(CC5CC5)nnc4c3C)cc2F)c(C)n1"
Result: class 0

Q: Take the compound "CC(C)Nc1ccc(-c2ccn3c(CC4CC4)nnc3c2C(F)(F)F)cc1F" and say whether its K is less than 0.08 min⁻¹.
Result: class 0

Q: Field: below-cutoff. Rule: recorded K strictly less than 0.08 min⁻¹. Subject: "O[C@H]1CC[C@@H](Oc2ccc(-c3ccn4c(CC(F)(F)F)nnc4c3Cl)cc2Cl)CC1"
Result: class 1

Q: Check if K falls below 0.08 min⁻¹ for "Fc1cc(-c2ccn3c(CC4CC4)nnc3c2C(F)(F)F)ccc1NC1CC1" .
Result: class 0

Q: Field: below-cutoff. Rule: recorded K strictly less than 0.08 min⁻¹. Subject: "Cc1ccc(Oc2ccc(-c3ccn4c(CC5CC5)nnc4c3C(C)C)cc2F)c(C)n1"
Result: class 1

Q: Does the reported K of the following compound sit strictly below 0.08 min⁻¹? "Cc1cc(-c2nc(CN3CCNCC3)no2)cc2c1C(=O)N(Cc1ccc(OC(F)(F)F)cc1)C2"
Result: class 0

Q: Dear colleague, could you confirm whether K of "COc1ccc(CNc2ccc(-c3ccn4c(CC5CC5)nnc4c3C(F)(F)F)cc2F)cn1" falls below 0.08 min⁻¹? Thanks.
Result: class 1

Q: Given "FC(F)(F)c1c(-c2ccc(CNC3CCOCC3)c(Cl)c2)ccn2c(CC3CC3)nnc12" , is recorded K strictly lower than 0.08 min⁻¹?
Result: class 0

Q: Please let me know if "COc1ccc(CNc2ccc(-c3ccn4c(CC5CC5)nnc4c3C(F)(F)F)cc2)cn1" shows K below 0.08 min⁻¹.
Result: class 1

Q: Please let me know if "FC(F)(F)c1c(-c2ccc(NC3CCOCC3)c(Cl)c2)ccn2c(CC3CC3)nnc12" shows K below 0.08 min⁻¹.
Result: class 1

Q: # strict comparison: is reported K < 0.08 min⁻¹? input = "Clc1cc(-c2ccn3c(CC4CC4)nnc3c2Cl)ccc1NC1CC1"
Result: class 0

Q: K under 0.08 min⁻¹? Item: "CCOCc1nnc2c(Cl)c(-c3ccc(Oc4ccc(C)nc4C)c(F)c3)ccn12"
Result: class 1
